TEST NAME: Alisertib plasma PK in patients
Format: in vivo, human
ASSAY SETUP: human, plasma, oral, 40 mg, Median Tmax (range), MRV, alisertib 40 mg b.i.d., C1D1, n=25
REPORTED METRIC: Tmax

[[record]]
smiles_notation = "COc1cc(Nc2ncc3c(n2)-c2ccc(Cl)cc2C(c2c(F)cccc2OC)=NC3)ccc1C(=O)O"
value_reported = "3 h"


---

TEST NAME: Alisertib plasma PK in patients
Type: in vivo, human
ASSAY SETUP: human, plasma, oral, tmax after dose, with both MR and MRV
REPORTED METRIC: Tmax

[[record]]
molecule = "COc1cc(Nc2ncc3c(n2)-c2ccc(Cl)cc2C(c2c(F)cccc2OC)=NC3)ccc1C(=O)O [alisertib]"
reported_metric = "Tmax"
value_reported = "~3 h"


---

TEST NAME: Vincristine plasma PK in presence
Assay type: in vivo, human
ASSAY SETUP: human, plasma, intravenous, 40 mg, Geometric mean CL (CV), alisertib 40 mg b.i.d. cohort, C1D1 (alisertib present), n=25
REPORTED METRIC: clearance (mL/min)

[[record]]
compound = "CC[C@]1(O)C[C@H]2CN(CCc3c([nH]c4ccccc34)[C@@](C(=O)OC)(c3cc4c(cc3OC)N(C=O)[C@H]3[C@@](O)(C(=O)OC)[C@H](OC(C)=O)[C@]5(CC)C=CCN6CC[C@]43[C@@H]65)C2)C1 [vincristine]"
value_reported = 427


---

TEST NAME: Alisertib plasma PK in patients
Format: in vivo, human
ASSAY SETUP: human, plasma, oral, 50 mg, Geometric mean AUCτ (CV), MR, alisertib 50 mg b.i.d., C1D7, n=12
REPORTED METRIC: AUC (µM·h)

[[record]]
smiles_notation = "COc1cc(Nc2ncc3c(n2)-c2ccc(Cl)cc2C(c2c(F)cccc2OC)=NC3)ccc1C(=O)O"
readout_units = "µM·h"
value_reported = 18.7


---

TEST NAME: Alisertib plasma PK in patients
Type: in vivo, human
ASSAY SETUP: human, plasma, oral, 50 mg, Geometric mean Cmax (CV), MRV, alisertib 50 mg b.i.d., C1D7, n=2
REPORTED METRIC: Cmax

[[record]]
compound = "COc1cc(Nc2ncc3c(n2)-c2ccc(Cl)cc2C(c2c(F)cccc2OC)=NC3)ccc1C(=O)O [alisertib]"
reported_metric = "Cmax"
value_reported = "3.5 µM"


---

TEST NAME: Vincristine plasma PK in presence
Assay type: in vivo, human
ASSAY SETUP: human, plasma, intravenous, 30 mg, Geometric mean AUC∞ (CV), alisertib 30 mg b.i.d. cohort, C2D1 (alisertib absent), n=3
REPORTED METRIC: AUC(0-inf) (ng·h/mL)

[[record]]
smiles_notation = "CC[C@]1(O)C[C@H]2CN(CCc3c([nH]c4ccccc34)[C@@](C(=O)OC)(c3cc4c(cc3OC)N(C=O)[C@H]3[C@@](O)(C(=O)OC)[C@H](OC(C)=O)[C@]5(CC)C=CCN6CC[C@]43[C@@H]65)C2)C1"
value_reported = 69


---

TEST NAME: Vincristine plasma PK in presence
Type: in vivo, human
ASSAY SETUP: human, plasma, intravenous, 40 mg, Geometric mean Cmax (CV), alisertib 40 mg b.i.d. cohort, C2D1 (alisertib absent), n=17
REPORTED METRIC: Cmax (ng/mL)

[[record]]
compound = "CC[C@]1(O)C[C@H]2CN(CCc3c([nH]c4ccccc34)[C@@](C(=O)OC)(c3cc4c(cc3OC)N(C=O)[C@H]3[C@@](O)(C(=O)OC)[C@H](OC(C)=O)[C@]5(CC)C=CCN6CC[C@]43[C@@H]65)C2)C1 [vincristine]"
reported_metric = "Cmax"
readout_units = "ng/mL"
value_reported = 87.3

